test system: JAK1 (Homo sapiens (Human), UniProt P23458)
Sequence (P23458 875-1153): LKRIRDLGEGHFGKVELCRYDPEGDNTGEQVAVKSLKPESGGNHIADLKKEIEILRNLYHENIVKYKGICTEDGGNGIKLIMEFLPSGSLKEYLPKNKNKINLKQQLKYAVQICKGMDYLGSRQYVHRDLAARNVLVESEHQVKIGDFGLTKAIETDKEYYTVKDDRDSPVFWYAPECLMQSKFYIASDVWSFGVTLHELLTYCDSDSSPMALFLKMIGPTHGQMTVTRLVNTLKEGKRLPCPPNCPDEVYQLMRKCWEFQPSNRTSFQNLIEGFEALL
assay notes: Jak Biochemical HTRF Assay (JAK1)
run conditions: recombinant purified GST-tagged catalytic domain; HTRF; [ATP] 31.8 μM; [E] 1.405 nM
pIC50: −log10 of the molar value.
Assign true (1) whenever pIC50 does not fall below 9; assign false (0) whenever it does.

INSERT INTO assay_data (item_smiles, category) VALUES
  ('CCC1(n2nc(Nc3ccc4c(c3)CN(C(C)(C)C)S4(=O)=O)c3c(=O)[nH]ccc32)CCN(C(=O)OC(C)(C)C)CC1', 'false (0)');

# ---- query compound ----
Check this compound for pIC50 at or above 9: CCC1(n2nc(Nc3ccc(C(=O)N4CCOCC4)c(C)c3)c3c(=O)[nH]ccc32)CCN(C(=O)OC(C)(C)C)CC1
true (1)
